Tested on: SARS-CoV-2 virus
test_protocol: microbe, parasite or virus in culture
Type: cell-based
experimental_conditions: Severe acute respiratory syndrome coronavirus 2, VeroE6/TMPRSS2
reported_endpoint: EC50 (nM)
One number for each entry, in nM.

Query for SARS-CoV-2 virus: what EC50 does the record show for `CCC(CC)COC(=O)[C@H](C)N[P@](=O)(OC[C@H]1O[C@@](C#N)(c2ccc3c(N)ncnn23)[C@H](O)[C@@H]1O)Oc1ccccc1` ?
2350

----------
test_protocol: Single-dose toxicokinetic study, plasma HCQ (Example 10)
experimental_conditions: female, mouse, in vivo, 16 sprays
reported_endpoint: concentration at 0.25 h (ng/mL)
One number for each entry, in ng/mL.

Data request, read-out concentration at 0.25 h, for CCN(CCO)CCCC(C)Nc1ccnc2cc(Cl)ccc12 (stereo not shown) [HCQ, Hydroxychloroquine]
89.2

----------
test_protocol: Single-dose toxicokinetic study, plasma HCQ (Example 10)
experimental_conditions: female, mouse, in vivo, 16 sprays
reported_endpoint: Kp at 24 h
Answers are plain numbers.

I'd like to know its Kp at 24 h. The molecule in question is CCN(CCO)CCCC(C)Nc1ccnc2cc(Cl)ccc12 (stereo not shown) [HCQ, Hydroxychloroquine]
26.9

----------
test_protocol: Single-dose toxicokinetic study, plasma HCQ (Example 10)
experimental_conditions: male, mouse, in vivo, 16 sprays
reported_endpoint: Kp at 1 h
Answers are plain numbers.

Param item = CCN(CCO)CCCC(C)Nc1ccnc2cc(Cl)ccc12 (stereo not shown) [HCQ, Hydroxychloroquine] ; retrieve measured Kp at 1 h.
90.9

----------
test_protocol: Single-dose toxicokinetic study, plasma HCQ (Example 10)
experimental_conditions: male, mouse, in vivo, 16 sprays
reported_endpoint: concentration at 1 h (ng/mL)
Numbers only, in ng/mL.

Param item = CCN(CCO)CCCC(C)Nc1ccnc2cc(Cl)ccc12 (stereo not shown) [HCQ, Hydroxychloroquine] ; retrieve measured concentration at 1 h.
40.2

----------
test_protocol: Single-dose toxicokinetic study, plasma HCQ (Example 10)
experimental_conditions: male, mouse, in vivo, 16 sprays
reported_endpoint: concentration at 24 h (ng/mL)
Give bare numbers, in ng/mL.

What value of concentration at 24 h has been recorded for this entry: CCN(CCO)CCCC(C)Nc1ccnc2cc(Cl)ccc12 (stereo not shown) [HCQ, Hydroxychloroquine]
4.9

----------
test_protocol: Single-dose toxicokinetic study, plasma HCQ (Example 10)
experimental_conditions: both, mouse, in vivo, 16 sprays
reported_endpoint: Kp

Please give the measured Kp for this compound: CCN(CCO)CCCC(C)Nc1ccnc2cc(Cl)ccc12 (stereo not shown) [HCQ, Hydroxychloroquine]
≥ 25

----------
test_protocol: Dose range and dose response study of HCQ for lung delivery (Example 9)
experimental_conditions: male, mouse, in vivo, 16 sprays
reported_endpoint: concentration at 1 h

Quick check: concentration at 1 h of CCN(CCO)CCCC(C)Nc1ccnc2cc(Cl)ccc12 (stereo not shown) [HCQ, Hydroxychloroquine] ?
3660 ng/g

----------
test_protocol: Single-dose toxicokinetic study, plasma HCQ (Example 10)
experimental_conditions: male, mouse, in vivo, 16 sprays
Protocol: For the single-dose study, 48 mice were treated with the highest dose level (16 sprays) of Formulation 11. Twelve time points were measured: baseline (within one hour before dosing), 5 min, 15 min, 30 min, 1 h, 2 h, 3 h, 4 h, 6 h, 9 h, 24 h and 48 h post dosing. Each animal was sampled twice at two different time points and four mice per gender were used at each time point.
reported_endpoint: concentration at 0.5 h
Field note: include the unit after the figure.

Form field: reported concentration at 0.5 h of CCN(CCO)CCCC(C)Nc1ccnc2cc(Cl)ccc12 (stereo not shown) [HCQ, Hydroxychloroquine]
55 ng/mL
